Sourced from PubChem BioAssay (NCATS)

- experiment_description: qHTS of pediatric cancer cell lines to identify multiple opportunities for drug repurposing: Confirmatory screen for A673 cells (AID 1347110);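 also: cells exposed to compound for 48 h before the viability read; nearly all actives have a fitted effect of over 65% in size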; also: potency is read from the fitted curve at half-maximal effect
- applied_conditions: A673 Ewing sarcoma cell viability; series mostly up to 45.9 µM
Inconclusive results are not listed. Activity calls are given as the source filed them. Calls follow the shape of the dose curve; as a rule, active = well fitted cell-killing curve with a large enough effect; inconclusive = small, poorly fitted or top-dose-only effect; inactive = flat fitted curve, though single readings scatter. Starred links: 1 amine or outer side, 2 acyl side, 3 side chain; linkers in the order of their positions; H or OH if unused. Positions of bridges follow the written chain, without caps; N, C: chain ends. Non-standard residues stand in square brackets, D forms with d. Residues, ends and D or L forms follow the SMILES beside them. Chains are numbered I, II in the order given. Actinocin(9to1) = Cc1c2oc3c(C)ccc(C(=O)[*:1])c3nc-2c(C(=O)[*:2])c(N)c1=O; NMeV = CN[CH](C(=O)O)C(C)C; Sar = CNCC(=O)O
measurement_kind: Potency

# compound, endpoint_value
measured = [
    ("Cn1cnc(=N)c2[nH]cnc21", "inactive"),
    ("CC(C=CC1=C(C)CCCC1(C)C)=CC=CC(C)=CC(=O)Nc1ccc(O)cc1", "380 nM (active)"),
    ("CC(=O)O[C@@]12CO[C@H]1C[C@H](O)[C@@]1(C)C(=O)[C@H](O)C3=C(C)[C@@H](OC(=O)C(O)[C@@H](NC(=O)OC(C)(C)C)c4ccccc4)C[C@@](O)([C@@H](OC(=O)c4ccccc4)[C@@H]21)C3(C)C (some centres undefined)", "5.2 nM (active)"),
    ("CCOC(=O)N1CCN([N+]([O-])=NOc2ccc([N+](=O)[O-])cc2C#N)CC1", "2610 nM (active)"),
    ("CS(=O)(=O)N1CCc2c(-c3cnc(N)nc3)nc(N3CCOCC3)nc21", "4140 nM (active)"),
    ("CCC(C=C[C@@H]1OC(=O)C=C[C@H]1C)=C[C@H](C)CC=CC(C)=C[C@@H](C)C(=O)[C@@H](C)[C@H](O)[C@@H](C)CC(C)=CC(=O)O", "32.2 nM (active)"),
    ("CN(C)c1ccc(C(=O)NCCCCCCC(=O)NO)cc1", "1850 nM (active)"),
    ("CC(C)C[C@H](NC(=O)CNC(=O)c1cc(Cl)ccc1Cl)B1OC(=O)CC(CC(=O)O)(C(=O)O)O1 (some centres undefined)", "293 nM (active)"),
    ("Cn1cc(CNCC2CCN(c3ncc(C(=O)NO)cn3)CC2)c2ccccc21", "104 nM (active)"),
    ("COc1cccc2c1C(=O)c1c(O)c3c(c(O)c1C2=O)C[C@@](O)(C(C)=O)C[C@H]3O[C@H]1C[C@H](N)[C@H](O)[C@H](C)O1", "414 nM (active)"),
    ("Cc1c2oc3c(C)ccc(C(=O)NC4C(=O)NC(C(C)C)C(=O)N5CCCC5C(=O)N(C)CC(=O)N(C)C(C(C)C)C(=O)OC4C)c3nc-2c(C(=O)NC2C(=O)NC(C(C)C)C(=O)N3CCCC3C(=O)N(C)CC(=O)N(C)C(C(C)C)C(=O)OC2C)c(N)c1=O (centres undefined) (I: TVP[Sar][NMeV] / II: TVP[Sar][NMeV]; ester I:1-I:C, II:1-II:C; linker I:N-II:N via Actinocin(9to1); configuration not given here)", "14.7 nM (active)"),
    ("CC(=O)[C@]1(O)Cc2c(O)c3c(c(O)c2[C@@H](O[C@H]2C[C@H](N)[C@@H](O)[C@H](C)O2)C1)C(=O)c1ccccc1C3=O", "82.7 nM (active)"),
    ("CC1(C)O[C@@H]2C[C@H]3[C@@H]4CCC5=CC(=O)C=C[C@]5(C)[C@@H]4[C@@H](O)C[C@]3(C)[C@]2(C(=O)CO)O1", "inactive"),
    ("COc1cc(OC)c(C=CS(=O)(=O)Cc2ccc(OC)c(NCC(=O)O)c2)c(OC)c1", "369 nM (active)"),
]
